target: full-length human GLP1R on HEK293/CRE-Luc/hGLP1R cells (human, UniProt P43220 24-463); assay: cell-based or functional assay
Assay metric: CRE-luc Relative Signal:Noise (% M2361) (%)
Give the value in % but do not write % after it.

Incoming: So what's the measured CRE-luc Relative Signal:Noise (% M2361) for this one? REGN8072-M3190 (antibody, human IgG4 S228P, kappa, V domains shown, linker-payload M3190 (LP11) on Gln 3 of the N-terminal Q-tag LLQGSG, antibody-tethered drug conjugate; also called REGN8072 ATDC; anti-GLP1R mAb4-LP11) VH: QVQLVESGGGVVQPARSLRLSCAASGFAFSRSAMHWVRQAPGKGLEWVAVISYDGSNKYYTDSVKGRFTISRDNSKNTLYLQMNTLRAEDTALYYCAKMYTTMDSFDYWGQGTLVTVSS VL: DIQLTQSPSFLSASVGDRVTITCWASQGISSYLAWYQQKPGKAPKLLIYAASTLQSGVPSRFSGSGSGTEFTLTISSLQPEDFALYYCQQLNSYPRTFGQGTKVEIKR
Outgoing: 125

Incoming: Same again, this time with REGN9278-M3190 (antibody, human IgG4 S228P, kappa, V domains shown, linker-payload M3190 (LP11) on Gln 3 of the N-terminal Q-tag LLQGSG, antibody-tethered drug conjugate; also called REGN9278 ATDC) VH: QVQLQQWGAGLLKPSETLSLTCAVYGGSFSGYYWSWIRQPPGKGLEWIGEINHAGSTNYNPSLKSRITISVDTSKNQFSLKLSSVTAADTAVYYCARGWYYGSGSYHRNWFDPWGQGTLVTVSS VL: EIVLTQSPGTLSLSPGERATLSCRASQSVYYSYLAWYQQKPGQAPRLLIYGASNRATGIPDRFSGSGSGTDFTLTISRLEPEDFAVYYCQQYGNSPWTFGQGTKVEIKR
Outgoing: 115

Incoming: Same again, this time with REGN7988-M3190 (antibody, human IgG4 S228P, kappa, V domains shown, linker-payload M3190 (LP11) on Gln 3 of the N-terminal Q-tag LLQGSG) VH: QVQLVESGGGVVQPGRSLRLSCAASGFTFSGYGIHWVRQAPGKGLVWVAVIWYDGSFKYYADSVKGRFTISRDNSKNTLYLQMNSLRAEDTAVYYCARGDSSSSGRYYYYGMDVWGQGTTVTVSS VL: DIQMTQSPSSLSASVGDRVTITCRASQGIRNDLGWYQQKPGTAPKRLIFAASSLQSGVPSRFSGSGSGTEFTLTISSLQPEDFATYYCLQHNNYPPTFGGGTKVEIKR
Outgoing: 140

Incoming: Same again, this time with XXGTXTSDXX (CapAib-E*-G-T-F*-T-S-D-AA2-AA1: CapAib = 3-((2-(1H-imidazol-5-yl)ethyl)amino)-2,2-dimethyl-3-oxopropanoic acid; E* = (S)-2-amino-3-(2H-tetrazol-5-yl)propanoic acid; F* = (S)-2-amino-3-(2-fluorophenyl)-2-methylpropanoic acid; AA2 = biphenylalanine derivative carrying the amino-PEG8-triazole linker; AA1 = (S)-2-amino-5-(3,5-dimethylphenyl)pentanamide) [GLP1R agonist linker-payload LP11 (NH2-PEG8-triazole-P8)]
Outgoing: 96.4

Incoming: Same again, this time with REGN8070-M3190 (antibody, human IgG4 S228P, kappa, V domains shown, linker-payload M3190 (LP11) on Gln 3 of the N-terminal Q-tag LLQGSG, antibody-tethered drug conjugate; also called REGN8070 ATDC) VH: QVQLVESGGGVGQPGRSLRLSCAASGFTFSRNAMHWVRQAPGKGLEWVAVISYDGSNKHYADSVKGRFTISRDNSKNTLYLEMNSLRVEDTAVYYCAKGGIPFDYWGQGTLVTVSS VL: DIVMTQSPLSSPVTLGQPASISCRSSQSLVHFDGNTYLSWLHQRPGQPPRLLIYKISNRFSGVPDRFSGSGAGTDFTLKISRVEPEDVGVYYCMHATQFPYTFGQGTKLEIKR
Outgoing: 112
